The measured values listed here are drawn from ChEMBL document CHEMBL1155929.

pKi values by entry
Biological target: Sodium-dependent serotonin transporter (Homo sapiens, UniProt P31645)
Sequence (P31645 whole entry): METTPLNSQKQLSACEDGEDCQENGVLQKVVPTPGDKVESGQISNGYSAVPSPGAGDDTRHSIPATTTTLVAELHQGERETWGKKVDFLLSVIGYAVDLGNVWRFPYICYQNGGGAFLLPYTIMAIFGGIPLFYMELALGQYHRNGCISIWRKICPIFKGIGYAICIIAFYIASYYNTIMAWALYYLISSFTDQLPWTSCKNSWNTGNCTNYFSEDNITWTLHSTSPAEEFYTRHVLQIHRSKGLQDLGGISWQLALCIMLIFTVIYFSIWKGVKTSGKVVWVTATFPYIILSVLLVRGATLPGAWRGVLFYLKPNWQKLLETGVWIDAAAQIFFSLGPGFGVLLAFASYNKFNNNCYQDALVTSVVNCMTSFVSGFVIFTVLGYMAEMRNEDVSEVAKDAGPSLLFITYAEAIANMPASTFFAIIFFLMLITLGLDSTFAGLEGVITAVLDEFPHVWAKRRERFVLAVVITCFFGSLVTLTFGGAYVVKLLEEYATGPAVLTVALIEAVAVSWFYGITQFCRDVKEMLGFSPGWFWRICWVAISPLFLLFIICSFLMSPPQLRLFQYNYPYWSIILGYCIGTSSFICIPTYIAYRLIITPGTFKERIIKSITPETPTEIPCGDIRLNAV
Test: biochemical
Type: cell-based, HEK293
pKi here: minus log base 10 of the concentration, concentration in moles per litre.

Recorded results for 6 compounds are shown here.
>>> endpoint_value("COc1ccc2c(c1)CCN([C@H]1CC[C@H](c3c[nH]c4ccc(C#N)cc43)CC1)C2")
6.29
>>> endpoint_value("COc1ccc2c(c1)CCN([C@H]1CC[C@@H](c3c[nH]c4ccc(C#N)cc43)CC1)C2")
6.78
>>> endpoint_value("N#Cc1ccc2[nH]cc([C@H]3CC[C@H](N4CCc5cc(OCCCF)ccc5C4)CC3)c2c1")
5.64
>>> endpoint_value("N#Cc1ccc2[nH]cc([C@H]3CC[C@H](N4CCc5ccccc5C4)CC3)c2c1")
6.54
>>> endpoint_value("Cc1ccc(Sc2ccccc2CN(C)C)c(N)c1")
8.69
>>> endpoint_value("N#Cc1ccc2[nH]cc([C@H]3CC[C@@H](N4CCc5cc(OCCCF)ccc5C4)CC3)c2c1")
6.04

We next turn to a different compound, shown below.
Fill in the blank: the reported pKi of N#Cc1ccc2[nH]cc([C@H]3CC[C@@H](N4CCc5ccccc5C4)CC3)c2c1 is ____.
6.72
